IFN-γ(pg/ml) at 5µg/ml antibody values by entry
- Target system: T1, human CD112R on antigen-specific CD8+ T cells (human, UniProt Q6DKI7 1-326)
- T1 sequence (looked up): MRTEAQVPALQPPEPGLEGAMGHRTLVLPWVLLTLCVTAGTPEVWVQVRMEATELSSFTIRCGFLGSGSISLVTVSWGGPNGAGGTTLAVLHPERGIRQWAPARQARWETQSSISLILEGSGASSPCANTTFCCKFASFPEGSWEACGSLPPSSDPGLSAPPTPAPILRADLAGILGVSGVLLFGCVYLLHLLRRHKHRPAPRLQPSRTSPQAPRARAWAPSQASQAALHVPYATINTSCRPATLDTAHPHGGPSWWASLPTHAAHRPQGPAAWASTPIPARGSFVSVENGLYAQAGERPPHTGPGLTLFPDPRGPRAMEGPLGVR
- Assay explanation: cell-based or functional assay
Enter your answer as a number in pg/mL; do not include the unit.

Below: 2 binders and their reported IFN-γ(pg/ml) at 5µg/ml antibody.
- Binder: "C13 (antibody, human IgG1, kappa, V domains shown) VH: EVQLQQSGPELVKPGASVKISCKASGYTFTDYFMNWVKQSHGKSLEWIGDINPNNGSPNYNQKFKGRATLTVDKSSSTAYMELRSLTSEDSAVYYCASGYFDVWGTGTTVTVSS VL: DIVMTQSPSSLSVSAGEKVTMSCKSSQSLLNSGTQKNYLAWYQQKPGQPPKLLIYGASTRESGVPDRFTGSGSGTDFTLTISSVQAEDLAVYYCQNDHSYPWTFGGGTKLEIKR"
  Quantitative result: 658
- Binder: "C24 (antibody, human IgG1, kappa, V domains shown) VH: QVQLKQSGPGLVQPSQNLSITCTVSGFSLTGYGINWVRQSPGKGLEWLGVIWSGGNTEYNAAFRSRLSISKDTSKSQVFLKMNSLQADDTAIYSCARDSTGLYAMDYWGPGTSVTVSS VL: DLQMTQTTSSLSASLGDRVTISCRTSQDISNFLNWYQQKPDGPLKLLIYYTSRLHSGVPSRFSGSGSGTDYSLTISNLEQEDIATYFCQQGYMLPPTFGGGTKLEIKR"
  Quantitative result: 656

q: Can you look up the measured IFN-γ(pg/ml) at 5µg/ml antibody of C12 (antibody, human IgG1, kappa, V domains shown) VH: EVQLVASGGGLVKPGGSLKLSCAASGFTFSDYYMYWVRQTPEKRLEWVATISDGGGYTYYPDSVKGRFTISRDNDRNSLYLQMSSLKSEDTAMYYCGREDLWGQGTSVTVSS VL: DIQMTQSPSSLSASLGERVSLTCRASQDIGSSLNWLQQEPDGTVKRLIYATSRLDSGVPKRFSGSRSGSDYSLTISSLESEDFVDYYCLQYASFPYTFGGGTKLEIKR for me?
a: 678
